molecular target: RIPK1 (Homo sapiens (Human), UniProt Q13546)
Sequence (Q13546 1-327): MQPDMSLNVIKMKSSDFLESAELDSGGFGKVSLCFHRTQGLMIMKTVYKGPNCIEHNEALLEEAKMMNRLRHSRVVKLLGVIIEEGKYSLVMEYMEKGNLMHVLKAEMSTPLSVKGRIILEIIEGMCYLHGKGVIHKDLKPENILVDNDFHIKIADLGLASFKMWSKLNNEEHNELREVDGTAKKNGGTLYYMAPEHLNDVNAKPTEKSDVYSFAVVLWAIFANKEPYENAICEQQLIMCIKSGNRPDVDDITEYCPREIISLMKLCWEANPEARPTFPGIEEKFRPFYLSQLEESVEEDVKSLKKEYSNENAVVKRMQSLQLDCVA
ENDPOINT NAME: log10(IC50) (log10 of the value in µM)

- Cc1c(F)c(C(=O)Nc2cccc(Cl)c2F)nn1Cc1ccccc1 [Example 6]: -0.04
- O=C(Nc1cccc(Cl)c1F)c1ncn(Cc2ccc(F)cn2)n1 [Example 89]: 0.20
- N#Cc1ccc(Cn2cnc(C(=O)Nc3cccc(Cl)c3F)n2)cc1 [Example 33]: -0.41
- O=C(Nc1cccc(Cl)c1F)c1ncn(Cc2ccccc2)n1 [Example 27]: -1.51
- O=C(Nc1cc(F)cc(F)c1F)c1n[nH]c(Cc2ccccc2)n1 [Example 23]: 0.35
- O=C(Nc1ccc(F)c(Cl)c1F)c1ncn(Cc2ccccc2)n1 [Example 28]: -1.39
- O=C(Nc1cccc(Cl)c1F)c1ccn(Cc2ccccc2)n1 [Example 7]: 1.08
- O=C(Nc1cccc(F)c1F)c1n[nH]c(Cc2ccccc2)n1 [Example 22]: 0.20
- Cc1cc(C(=O)Nc2cccc(Cl)c2F)nn1Cc1ccccc1 [Example 5]: 1.16
- O=C(Nc1ccc(Br)c(Cl)c1F)c1ncn(Cc2ccccc2)n1 [Example 40]: 0.22
- O=C(Nc1ccc(O)c(Cl)c1F)c1ncn(Cc2ccccc2)n1 [Example 31]: -0.80
- O=C(Nc1cccc(Cl)c1F)c1c[nH]c(Cc2ccccc2)n1 [Example 45]: 1.69
- O=C(Nc1cccc(Cl)c1F)c1ncn(Cc2ccccc2F)n1 [Example 12]: -1.73
- Cc1nc(C(=O)Nc2cccc(Cl)c2F)nn1Cc1ccccc1 [Example 13]: -1.38
- O=C(Nc1cccc(Cl)c1F)c1nnc(Cc2ccccc2)o1 [Example 19]: 0.00
- NC(=O)c1cccc(Cn2nc3c(c2Cl)CCN(c2cccc(Cl)c2F)C3=O)c1 [Example 75]: -0.53
- N#Cc1cc(Cl)c(F)c(NC(=O)c2ncn(Cc3ccccc3)n2)c1 [Example 35]: -0.15

Where these numbers come from: patent US11718612B2
